study target: Amyloid-beta precursor protein (Homo sapiens)
assay info: Inhibition of Cu2+-induced HFIP-pretreated amyloid beta (1 to 42) (unknown origin) aggregation at 25 uM measured after 24 hrs by thioflavin-T fluorescence assay relative to control
measured attribute: inhibition (%)
Please reply with the bare figure in % and do not write the unit itself.

Below, 3 molecules whose answers are already recorded.
molecule	unit abbrev	inhibition
COC(=O)C(C)c1ccc(-c2ccc(NCc3cc(Br)cc(Br)c3O)cc2)c(F)c1 (stereo unspecified)	%	38.3
COC(=O)C(C)c1ccc(-c2ccc(NCc3ccccn3)cc2)c(F)c1 (stereo unspecified)	%	37.8
COC(=O)C(C)c1ccc(-c2ccc(NCc3ccccc3O)cc2)c(F)c1 (stereo unspecified)	%	42.9

## Task Provide one value: measured inhibition of "Oc1c(I)cc(Cl)c2cccnc12"
## Result 40.1

## Task Provide one value: measured inhibition of COC(=O)C(C)c1ccc(-c2ccc(NCc3ccc(OC)cc3O)cc2)c(F)c1 (stereo unspecified)
## Result 30.6

## Task Provide one value: measured inhibition of COC(=O)C(C)c1ccc(-c2ccc(NCc3cc(Br)ccc3O)cc2)c(F)c1 (stereo unspecified)
## Result 32
